Target: 5-hydroxytryptamine receptor 6 (Homo sapiens)
Sequence (P50406 whole entry): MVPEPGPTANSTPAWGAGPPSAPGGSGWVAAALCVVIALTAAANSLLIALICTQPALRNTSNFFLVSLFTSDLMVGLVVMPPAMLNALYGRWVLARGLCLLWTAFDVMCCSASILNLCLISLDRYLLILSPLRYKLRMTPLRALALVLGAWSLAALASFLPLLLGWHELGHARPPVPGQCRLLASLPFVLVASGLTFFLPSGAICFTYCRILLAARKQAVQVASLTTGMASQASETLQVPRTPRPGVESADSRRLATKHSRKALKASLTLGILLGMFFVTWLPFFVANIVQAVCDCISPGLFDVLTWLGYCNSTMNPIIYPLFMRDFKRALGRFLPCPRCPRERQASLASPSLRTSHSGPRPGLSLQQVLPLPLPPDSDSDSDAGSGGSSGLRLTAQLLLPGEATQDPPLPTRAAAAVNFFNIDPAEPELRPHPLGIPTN
Format: cell membranes, HeLa, Membrane
Settings: read-out: IC50
pIC50: −log10 of the molar value.
Label label 1 for high-side pIC50 (at or above 5) and label 0 for low-side pIC50 (below it).

The following compounds have reported results that may help.
COMPOUND	CLASS
c1ccc2sc(SSc3nc4ccccc4s3)nc2c1 [BENZOTHIAZYL DISULFIDE]	label 1
CN1C[C@H](CNC(=O)OCc2ccccc2)C[C@@H]2c3cccc4c3c(cn4C)C[C@H]21	label 1
CC(C)(c1ccc(O)cc1)c1ccc(O)cc1	label 1

Ask | Could you tell me if the measured pIC50 of "CCN(CC)C(=S)SSC(=S)N(CC)CC" reaches 5 or more?
Reply | label 0

Ask | Does the compound COc1ccccc1OCCNCC(O)COc1cccc2[nH]c3ccccc3c12 (stereo not given) have recorded pIC50 that is 5 or more?
Reply | label 1
